Values were extracted from paper PMC6643034.

# reported pKd; entries follow
- study-target: CXCL5 (human)
- test-protocol: BLI
pKd: −log10 of the molar value.
readout: pKd

>>> experimental_result("P1172_IXORI (natural protein) FLLKSQLCYCLFGIELIGAGIHALHEDEIFTVDYCGTNCTKQSNGSWTTCPGNCSCYHEDGKTDGFCLSTEYTDFTQFPNLTSEEMDAATPRPE")
7.23
>>> experimental_result("P1124_IXORI (natural protein) DSKGTSDSQDSTKSIKVDFCETNCTKTDGGWTGCTGDCICVSVGDSIEGRCMDFG")
7.58
>>> experimental_result("P1078_IXORI (natural protein) GSKGSSAQQSSHDSIKAEFCETNCTMKTGGKWTQCHGGCFCVHVGNETVGRCIKLDGDYDYPSSKHEE")
7.41
>>> experimental_result("P675 (natural protein, also: glycosylated) GSNQLSGPQSSANSNDAVFCDTNCTQGTDGAWSGCRGDCFCVHVGNSTEGRCIELIGDFDYSTPGAED")
7.47
>>> experimental_result("P1080_IXORI (natural protein) SAGSKGSSAPQSSGDSVVAEFCDTNCTMKKDGKWTECNGDCFCVHVGNETVGRCMRLDGDYDYTSSKTTRRNKKTRNGLCRLDRNRTTVDYPERNTREP")
7.26
>>> experimental_result("P1142 (natural protein, glycosylated (periodic acid–Schiff staining)) DGGKPQILQRTDHSTDSDWDPQMCPETCNPSKNISCSSECLCVTLGGGDETGTCFNMSGVDWLGHAQASDGHNDGGGASAWSHPQFEKLEHHHHHHHH")
8.01
>>> experimental_result("P1126 (natural protein, also: glycosylated) DGGKPQILQRTDKSTDSEWDPQTCPETCIPSKNITCSDGCVCVKLGEEEEGTCFNMTGVDWLGSPSDD")
7.92
